# tgt: human NaV1.6 (Homo sapiens, UniProt Q9UQD0)
# Construct: HEK-293 cell lines stably expressing human NaV1.6 (NP_055006) were used; expressed in transfected cells
# Sequence (Q9UQD0 whole entry): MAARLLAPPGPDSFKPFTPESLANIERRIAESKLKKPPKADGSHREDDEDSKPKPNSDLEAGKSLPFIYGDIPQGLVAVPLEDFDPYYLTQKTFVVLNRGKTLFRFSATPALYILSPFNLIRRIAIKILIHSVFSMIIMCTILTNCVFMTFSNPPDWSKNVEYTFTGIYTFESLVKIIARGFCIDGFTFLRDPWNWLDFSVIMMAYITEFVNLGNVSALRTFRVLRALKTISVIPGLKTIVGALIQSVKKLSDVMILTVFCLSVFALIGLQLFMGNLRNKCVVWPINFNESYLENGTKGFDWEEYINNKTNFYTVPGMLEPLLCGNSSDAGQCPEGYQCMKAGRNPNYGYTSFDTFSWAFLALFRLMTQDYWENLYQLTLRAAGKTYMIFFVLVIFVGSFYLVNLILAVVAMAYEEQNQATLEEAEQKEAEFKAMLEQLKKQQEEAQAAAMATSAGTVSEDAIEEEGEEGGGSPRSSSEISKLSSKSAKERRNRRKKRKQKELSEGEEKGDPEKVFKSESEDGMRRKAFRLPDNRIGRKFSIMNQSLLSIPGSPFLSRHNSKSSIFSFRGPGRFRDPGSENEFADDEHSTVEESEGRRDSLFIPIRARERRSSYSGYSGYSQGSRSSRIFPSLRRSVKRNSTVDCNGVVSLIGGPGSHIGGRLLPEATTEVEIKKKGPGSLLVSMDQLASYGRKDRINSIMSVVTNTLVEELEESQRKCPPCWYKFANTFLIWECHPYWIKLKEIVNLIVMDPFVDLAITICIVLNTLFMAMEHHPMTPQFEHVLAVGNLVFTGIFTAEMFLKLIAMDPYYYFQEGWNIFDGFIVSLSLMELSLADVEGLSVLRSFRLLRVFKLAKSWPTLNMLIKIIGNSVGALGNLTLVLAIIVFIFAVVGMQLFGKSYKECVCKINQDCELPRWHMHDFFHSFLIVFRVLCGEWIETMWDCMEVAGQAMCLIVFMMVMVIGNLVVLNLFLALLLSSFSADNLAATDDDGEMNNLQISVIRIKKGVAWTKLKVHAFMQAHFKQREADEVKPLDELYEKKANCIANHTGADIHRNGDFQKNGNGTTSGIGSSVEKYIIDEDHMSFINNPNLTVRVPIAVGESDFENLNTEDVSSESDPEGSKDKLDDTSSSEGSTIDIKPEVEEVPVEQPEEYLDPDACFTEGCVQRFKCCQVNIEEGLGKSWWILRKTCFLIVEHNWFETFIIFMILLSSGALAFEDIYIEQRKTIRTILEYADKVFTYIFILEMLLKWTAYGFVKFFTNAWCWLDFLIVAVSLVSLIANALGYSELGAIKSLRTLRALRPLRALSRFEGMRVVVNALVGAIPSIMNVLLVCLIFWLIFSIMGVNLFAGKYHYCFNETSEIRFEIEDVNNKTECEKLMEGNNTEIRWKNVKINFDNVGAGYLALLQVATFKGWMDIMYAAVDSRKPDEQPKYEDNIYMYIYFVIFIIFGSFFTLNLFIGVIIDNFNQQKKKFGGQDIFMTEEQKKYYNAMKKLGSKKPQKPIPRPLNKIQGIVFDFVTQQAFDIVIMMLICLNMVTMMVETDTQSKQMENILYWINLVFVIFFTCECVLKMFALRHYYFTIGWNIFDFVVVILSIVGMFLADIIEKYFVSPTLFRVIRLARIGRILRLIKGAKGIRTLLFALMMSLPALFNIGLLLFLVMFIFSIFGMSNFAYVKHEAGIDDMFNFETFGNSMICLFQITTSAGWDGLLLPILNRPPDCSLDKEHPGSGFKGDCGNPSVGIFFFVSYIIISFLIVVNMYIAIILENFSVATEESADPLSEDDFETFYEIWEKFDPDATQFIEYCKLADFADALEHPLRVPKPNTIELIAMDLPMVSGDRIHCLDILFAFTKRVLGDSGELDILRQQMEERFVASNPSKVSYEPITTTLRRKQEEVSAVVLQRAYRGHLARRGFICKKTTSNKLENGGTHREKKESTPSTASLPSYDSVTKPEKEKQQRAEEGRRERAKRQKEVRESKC
# test method notes: Peak INa use-dependent block (UDB-10 Hz), automated patch clamp in HEK cells
# Assay type: cell-based
# recorded conditions: use-dependent block, Vm -120 mV, 10 Hz
pIC50: −log10 of the molar value.

{"smiles notation": "CCOC(F)(F)c1nnc2ccc(-c3cnc(OCC(F)(F)F)c(F)c3)cn12", "pIC50": 6.70}
